Just for reference, ChEMBL document CHEMBL4673244 is where these values come from.

compounds and their reported Papp
test: in vitro; conditions: dog, MDCK

- molecule.smiles: "C[C@H]1[C@H](O)CN1c1nc(N2C[C@@H]3[C@@H](CC(=O)O)[C@@H]3C2)cc(C(F)(F)F)c1C#N"
  Papp (×10⁻⁶ cm/s): 5.6
- molecule.smiles: "C[C@]1(O)CCN(c2nc(N3C[C@H](O)[C@@H](O)C3)cc(C(F)(F)F)c2C#N)C1"
  Papp (×10⁻⁶ cm/s): 3.5
- molecule.smiles: "C[C@H]1[C@H](O)CN1c1nc(N2C[C@@H]3[C@@H](CC(=O)O)[C@@H]3C2)cc(C(F)(F)F)n1"
  Papp (×10⁻⁶ cm/s): 1.4
